Each entry below lists one item and its recorded Ratio IC50 value.
Test system: MOLT-4
test: Ratio of IC50 for chymotrypsin-like activity of 20S proteasome in human MOLT4 cells to IC50 for chymotrypsin-like activity of human liver 20S proteasome in cell-free assay
Type: cell-based
Form rule: numeric answer, no unit written next to it.

Sample records with Ratio IC50:
Please indicate Ratio IC50 recorded for CC(C)C[C@H](NC(=O)[C@H](CCCN/C(N)=N/[N+](=O)[O-])NC(=O)C(CCCCCCCCC#N)C1CCCC1)B1O[C@@H]2[C@@H]3C[C@H](C[C@]2(C)O1)C3(C)C (mixture of isomers)
69

Return Ratio IC50 for the following molecule: CC(C)C[C@H](NC(=O)[C@H](CCCN/C(N)=N/[N+](=O)[O-])NC(=O)C(CCCCCCCCC#N)C1CCCC1)B(O)O (mixture of isomers)
840

Return the recorded Ratio IC50 value; entry: CC(C)C[C@H](NC(=O)[C@H](CCCN/C(N)=N/[N+](=O)[O-])NC(=O)C(CCCCCCCCN1C(=O)c2ccccc2C1=O)C1CCCC1)B1O[C@@H]2[C@@H]3C[C@H](C[C@]2(C)O1)C3(C)C (mixture of isomers)
20

---
Quote Ratio IC50 reported for CC(C)C[C@H](NC(=O)[C@H](CCCN/C(N)=N/[N+](=O)[O-])NC(=O)C(CCCCCCCCN1C(=O)c2ccccc2C1=O)C1CCCC1)B(O)O (mixture of isomers) please.
690
